Target: human TLR9 (Homo sapiens)
Construct: host or cells: HEK-Blue cells (HEK293-derived reporter line)
Sequence (Q9NR96 26-1032): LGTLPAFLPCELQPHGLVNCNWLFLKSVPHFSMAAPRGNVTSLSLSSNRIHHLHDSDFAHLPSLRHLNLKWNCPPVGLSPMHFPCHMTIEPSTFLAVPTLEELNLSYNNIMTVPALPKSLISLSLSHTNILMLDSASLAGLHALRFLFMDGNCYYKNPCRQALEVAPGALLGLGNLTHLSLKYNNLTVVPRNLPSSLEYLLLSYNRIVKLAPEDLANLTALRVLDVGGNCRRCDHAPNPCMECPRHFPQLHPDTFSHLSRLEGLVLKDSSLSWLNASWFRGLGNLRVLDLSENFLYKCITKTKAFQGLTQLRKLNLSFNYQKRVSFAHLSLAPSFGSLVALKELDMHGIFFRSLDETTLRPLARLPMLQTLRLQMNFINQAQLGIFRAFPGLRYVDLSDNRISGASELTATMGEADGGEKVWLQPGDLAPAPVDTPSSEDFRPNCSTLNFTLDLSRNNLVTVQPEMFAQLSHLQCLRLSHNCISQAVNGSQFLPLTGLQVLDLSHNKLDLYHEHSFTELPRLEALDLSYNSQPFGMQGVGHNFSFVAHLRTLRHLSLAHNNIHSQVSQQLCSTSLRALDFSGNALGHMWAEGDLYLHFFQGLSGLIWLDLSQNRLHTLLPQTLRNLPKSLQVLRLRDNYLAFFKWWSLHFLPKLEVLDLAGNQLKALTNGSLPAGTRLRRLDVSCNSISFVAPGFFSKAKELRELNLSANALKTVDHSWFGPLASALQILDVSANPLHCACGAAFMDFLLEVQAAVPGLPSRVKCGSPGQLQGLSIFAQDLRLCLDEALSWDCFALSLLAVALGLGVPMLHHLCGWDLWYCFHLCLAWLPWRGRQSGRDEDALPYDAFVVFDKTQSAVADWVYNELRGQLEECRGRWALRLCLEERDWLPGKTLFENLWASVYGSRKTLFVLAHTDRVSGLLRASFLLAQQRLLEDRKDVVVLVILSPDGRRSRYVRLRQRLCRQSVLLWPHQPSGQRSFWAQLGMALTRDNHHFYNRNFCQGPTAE
Test: TLR9 inhibition reporter assay (HEK-Blue cells, secreted embryonic alkaline phosphatase reporter)
Assay type: cell-based
Details: HEK-Blue cells overexpressing human TLR9, stimulated with ODN2006 5 nM, 22 hour incubation, reporter readout
pIC50: −log10 of the molar value.
pIC50 below 7 gives Criterion not met; pIC50 at or above it gives Criterion met.

## Input Is pIC50 for COc1ccc(-c2nc3cc(C4CCN(C5CCN(C6CC6)CC5)CC4)ccc3n2C(C)C)cc1OC at or above 7?
## Output Criterion not met

## Input Is pIC50 for COc1ccc(-c2nc3c(C)cc(C4CCN(C5CC6(C5)CN(C(C)C)C6)CC4)cc3[nH]2)cc1OC at or above 7?
## Output Criterion met

## Input Is pIC50 for COc1ccc(-c2nc3c(C)cc(C4CCN(C5CCN(CC(C)C)CC5)CC4)cc3[nH]2)cc1F at or above 7?
## Output Criterion met

* * *

Biological target: human TLR7 (Homo sapiens, UniProt Q9NYK1)
Construct: host or cells: HEK-Blue cells (HEK293-derived reporter line)
Sequence (Q9NYK1 27-1049): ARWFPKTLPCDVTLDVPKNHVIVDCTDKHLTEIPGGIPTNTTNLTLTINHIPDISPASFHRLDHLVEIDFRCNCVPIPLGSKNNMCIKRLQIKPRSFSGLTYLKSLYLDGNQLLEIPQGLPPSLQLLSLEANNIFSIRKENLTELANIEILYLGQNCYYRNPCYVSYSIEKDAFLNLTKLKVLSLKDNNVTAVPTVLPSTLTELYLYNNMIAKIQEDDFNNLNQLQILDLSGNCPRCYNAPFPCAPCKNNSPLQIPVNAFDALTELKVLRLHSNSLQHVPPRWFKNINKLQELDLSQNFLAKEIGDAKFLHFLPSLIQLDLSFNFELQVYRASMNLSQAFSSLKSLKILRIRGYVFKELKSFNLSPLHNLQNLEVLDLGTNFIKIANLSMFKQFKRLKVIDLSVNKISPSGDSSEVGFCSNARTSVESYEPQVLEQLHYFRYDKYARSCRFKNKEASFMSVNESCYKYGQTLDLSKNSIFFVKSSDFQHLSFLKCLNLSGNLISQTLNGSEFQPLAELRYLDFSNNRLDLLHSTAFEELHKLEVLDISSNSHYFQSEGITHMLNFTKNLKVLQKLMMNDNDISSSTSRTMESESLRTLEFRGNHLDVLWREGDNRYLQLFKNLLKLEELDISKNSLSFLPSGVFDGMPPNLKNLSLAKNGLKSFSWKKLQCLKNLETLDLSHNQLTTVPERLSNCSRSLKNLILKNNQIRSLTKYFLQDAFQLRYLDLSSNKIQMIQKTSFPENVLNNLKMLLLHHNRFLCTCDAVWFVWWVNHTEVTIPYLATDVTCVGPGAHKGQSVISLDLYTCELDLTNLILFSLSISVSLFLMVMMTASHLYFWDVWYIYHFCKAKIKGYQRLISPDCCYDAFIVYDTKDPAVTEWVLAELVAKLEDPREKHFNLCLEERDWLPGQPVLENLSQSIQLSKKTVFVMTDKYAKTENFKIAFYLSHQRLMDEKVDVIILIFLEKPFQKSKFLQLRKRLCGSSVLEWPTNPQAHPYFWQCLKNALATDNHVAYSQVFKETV
Assay: TLR7 inhibition reporter assay (HEK-Blue cells, secreted embryonic alkaline phosphatase reporter)
Format: cell-based
Settings: HEK-Blue cells overexpressing human TLR7, stimulated with gardiquimod 7.5 μM; read-out: TLR 7 IC50
measurement_label: IC50 (µM)
Please state the figure in µM; there is no need to write the unit.

## Input Please give the measured IC50 for this compound: Cn1c(-c2ccc(S(C)(=O)=O)cc2)nc2ccc(C3CCN(C4CC5CCC(C4)N5C4CCOCC4)CC3)c(F)c21 (stereo not shown) [Example 274]
## Output 26.1

## Input Please give the measured IC50 for this compound: CC(C)CN1C2CCC1CC(N1CCC(c3ccc4nc(-c5ccc(S(C)(=O)=O)cc5)n(C)c4c3F)CC1)C2 (single isomer, unassigned) [Example 266]
## Output 18.6

## Input Please give the measured IC50 for this compound: Cc1cc(-c2ccc(C3CCN(C4CCN(C5CC5)CC4)CC3)cc2)cc2c1nc(-c1ccc(S(C)(=O)=O)cc1)n2C
## Output 2.7

## Input Please give the measured IC50 for this compound: CC(C)CN1C2CCC1CC(N1CCC(c3cc4c(cc3F)nc(-c3ccc(S(C)(=O)=O)cc3)n4C)CC1)C2 (single isomer, unassigned) [Example 228]
## Output 1.4

## Input Please give the measured IC50 for this compound: Cn1c(-c2ccc(S(C)(=O)=O)cc2)nc2cc(F)c(C3CCN(C4CC5CCC(C4)N5C4CCC4)CC3)cc21 (stereo not shown) [Example 233]
## Output 29

* * *

Target: human TLR8 (Homo sapiens, UniProt Q9NR97)
Sequence (Q9NR97 27-1041): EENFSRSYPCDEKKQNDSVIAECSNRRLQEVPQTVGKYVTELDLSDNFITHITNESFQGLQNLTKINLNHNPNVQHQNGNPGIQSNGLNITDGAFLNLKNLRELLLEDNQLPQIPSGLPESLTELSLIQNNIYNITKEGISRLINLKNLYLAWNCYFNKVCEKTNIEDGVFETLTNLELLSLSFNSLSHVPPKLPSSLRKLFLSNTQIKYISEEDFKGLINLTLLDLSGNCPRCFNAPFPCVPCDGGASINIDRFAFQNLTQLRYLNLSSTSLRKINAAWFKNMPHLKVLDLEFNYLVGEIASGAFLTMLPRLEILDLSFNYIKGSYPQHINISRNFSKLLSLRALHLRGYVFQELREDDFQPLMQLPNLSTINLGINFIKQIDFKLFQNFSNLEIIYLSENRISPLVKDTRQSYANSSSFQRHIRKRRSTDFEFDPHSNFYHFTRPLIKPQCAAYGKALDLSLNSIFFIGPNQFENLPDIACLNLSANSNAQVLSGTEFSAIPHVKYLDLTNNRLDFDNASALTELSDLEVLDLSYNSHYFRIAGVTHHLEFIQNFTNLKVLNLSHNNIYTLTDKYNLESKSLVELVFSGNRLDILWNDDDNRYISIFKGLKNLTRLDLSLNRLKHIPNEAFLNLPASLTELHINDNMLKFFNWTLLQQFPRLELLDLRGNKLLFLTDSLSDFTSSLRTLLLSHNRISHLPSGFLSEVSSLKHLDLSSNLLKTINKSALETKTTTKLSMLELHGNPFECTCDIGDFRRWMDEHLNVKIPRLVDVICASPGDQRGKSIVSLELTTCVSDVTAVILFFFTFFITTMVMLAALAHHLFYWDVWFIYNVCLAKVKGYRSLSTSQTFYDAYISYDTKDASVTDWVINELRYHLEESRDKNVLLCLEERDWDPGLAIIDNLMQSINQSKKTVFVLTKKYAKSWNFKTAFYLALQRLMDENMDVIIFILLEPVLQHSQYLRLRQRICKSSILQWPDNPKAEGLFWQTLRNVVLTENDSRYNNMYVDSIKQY
Experiment: TLR8 inhibition reporter assay (HEK-Blue cells, secreted embryonic alkaline phosphatase reporter)
Settings: HEK-Blue cells overexpressing human TLR8, stimulated with R848 15.9 μM; read-out: TLR 8 IC50
pIC50: −log10 of the molar value.
measurement_label: pIC50

## Input Please give the measured pIC50 for this compound: COc1ccc(-c2nc3c(C)cc(C4CCN(C5CCN(C6CC6)CC5)CC4)cc3n2C)cc1F
## Output < 4.30

## Input Please give the measured pIC50 for this compound: Cc1cc(C2CCN(C3CC4CCC(C3)N4CC3CC3)CC2)cc2[nH]c(-c3ccc(S(C)(=O)=O)cc3)nc12 (stereo not drawn) [Example 336]
## Output < 4.30

## Input Please give the measured pIC50 for this compound: Cc1cc(C2CCN(C3CC4CCC(C3)N4CC(C)C)CC2)cc2[nH]c(-c3ccc(S(C)(=O)=O)cc3)nc12 (stereo not drawn)
## Output < 4.60

## Input Please give the measured pIC50 for this compound: Cc1cc(-c2ccc(CN3CCC(N(C)C)CC3)cc2)cc2c1nc(-c1ccc(S(C)(=O)=O)cc1)n2C
## Output 5.25

## Input Please give the measured pIC50 for this compound: Cn1c(-c2ccc(S(C)(=O)=O)cc2)nc2cc(F)c(C3CCN(C4CC5CCC(C4)N5C4CCC4)CC3)cc21 (stereo not drawn) [Example 233]
## Output < 4.30

## Input Please give the measured pIC50 for this compound: COCCN1C2CCC1CC(N1CCC(c3ccc4c(nc(-c5ccc(S(C)(=O)=O)cc5)n4C)c3F)CC1)C2 (single isomer, unassigned) [Example 199]
## Output < 4.30

## Input Please give the measured pIC50 for this compound: Cc1cc(-c2ccc(CN3CC4(C3)CN(CC(C)C)C4)cc2)cc2c1nc(-c1ccc(S(C)(=O)=O)cc1)n2C
## Output 5.17

## Input Please give the measured pIC50 for this compound: COc1ccc(-c2nc3c(C)cc(C4CCN(C5CC6(C5)CN(CC5CC5)C6)CC4)cc3n2C)cc1OC
## Output < 4.30

## Input Please give the measured pIC50 for this compound: COc1ccc(-c2nc3c(C)cc(C4CC5CCC(C4)N5C4CCN(CC(C)C)CC4)cc3n2C)cc1OC (stereo not drawn)
## Output < 4.30
